test: Metabolic stability in human hepatocytes assessed as half life; assay type: ADME, cell-based, Hepatocyte
parameterMeasured: half-life (h)
Answers are plain numbers, in h.

Recorded result, COC(=O)Nc1cc(C(F)(F)F)c(-c2nc(N3CCOCC3)c3cc(CN4CCN(S(C)(=O)=O)CC4)cn3n2)cn1 , half-life: 6.79

* * *

test: Metabolic stability in mouse hepatocytes assessed as intrinsic clearance; format: ADME, cell-based, Hepatocyte; conditions: read-out: CLH
parameterMeasured: CLint scaled

Recorded result, COC(=O)Nc1cc(C(F)(F)F)c(-c2nc(N3CCOCC3)c3cc(CN4CCN(S(C)(=O)=O)CC4)cn3n2)cn1 , CLint scaled: 21.6 mL/min/kg

* * *

assay: Metabolic stability in Beagle dog hepatocytes assessed as half life; format: ADME, cell-based, Canis lupus familiaris, Hepatocyte
parameterMeasured: half-life (h)
Numbers only, in h.

Recorded result, COC(=O)Nc1cc(C(F)(F)F)c(-c2nc(N3CCOCC3)c3cc(CN4CCN(S(C)(=O)=O)CC4)cn3n2)cn1 , half-life: 1.46

* * *

experiment: Metabolic stability in human hepatocytes assessed as intrinsic clearance; assay type: ADME, cell-based, Hepatocyte; details: read-out: CLH
parameterMeasured: CLint scaled (mL/min/kg)
Answers are plain numbers, in mL/min/kg.

Recorded result, COC(=O)Nc1cc(C(F)(F)F)c(-c2nc(N3CCOCC3)c3cc(CN4CCN(S(C)(=O)=O)CC4)cn3n2)cn1 [RISOVALISIB] , CLint scaled: 3.05

* * *

assay: AUC (0 to infinity) in rat at 10 mg/kg, po; assay type: ADME, organism-based; parameters: route oral, time infinity, dose 10 mg/kg; conditions: in vivo
parameterMeasured: AUC(0-inf) (ng·h/mL)
One number for each entry, in ng·h/mL.

Recorded result, COC(=O)Nc1cc(C(F)(F)F)c(-c2nc(N3CCOCC3)c3cc(CN4CCN(S(C)(=O)=O)CC4)cn3n2)cn1 , AUC(0-inf): 2750

* * *

test: Tmax in rat at 10 mg/kg, po; assay type: ADME, organism-based; settings: in vivo
parameterMeasured: Tmax (min)
Numbers only, in min.

Recorded result, COC(=O)Nc1cc(C(F)(F)F)c(-c2nc(N3CCOCC3)c3cc(CN4CCN(S(C)(=O)=O)CC4)cn3n2)cn1 , Tmax: 52.5

* * *

experiment: Metabolic stability in Beagle dog hepatocytes assessed as intrinsic clearance; type: ADME, cell-based, Canis lupus familiaris, Hepatocyte; details: read-out: CLH
parameterMeasured: CLint scaled (mL/min/kg)
Give bare numbers, in mL/min/kg.

Recorded result, COC(=O)Nc1cc(C(F)(F)F)c(-c2nc(N3CCOCC3)c3cc(CN4CCN(S(C)(=O)=O)CC4)cn3n2)cn1 [RISOVALISIB] , CLint scaled: 39.5

* * *

assay: Metabolic stability in rat hepatocytes assessed as intrinsic clearance; assay type: ADME, cell-based, Hepatocyte; settings: read-out: CLH
parameterMeasured: CLint scaled (mL/min/kg)
One number for each entry, in mL/min/kg.

Recorded result, COC(=O)Nc1cc(C(F)(F)F)c(-c2nc(N3CCOCC3)c3cc(CN4CCN(S(C)(=O)=O)CC4)cn3n2)cn1 [RISOVALISIB] , CLint scaled: 16.9

* * *

Give measured pIC50 for each item. Keep answers brief.
target: Phosphatidylinositol 4,5-bisphosphate 3-kinase catalytic subunit alpha isoform (Homo sapiens); experiment: Inhibition of human PI3Kalpha using PIP2 as substrate in presence of ATP measured after 30 mins by HTRF assay
Answers are plain numbers, as −log10 of the molar value.

>  <substanceSmiles>
CS(=O)(=O)N1CCN(Cc2cc3c(N4CCOCC4)nc(-c4cnc(NC(=O)Oc5ccccc5)cc4C(F)(F)F)nn3c2)CC1

>  <observedMeasurement>
7.35

$$$$

Consider the following items and state reported pIC50 for each.
1. CS(=O)(=O)N1CCN(Cc2cc3c(N4CCOCC4)nc(-c4cnc(NC(=O)Nc5ccc(F)cc5)cc4C(F)(F)F)nn3c2)CC1
2. COC(=O)Nc1cc(C(F)(F)F)c(-c2nc(N3CCOCC3)c3cc(CN4CCN(S(C)(=O)=O)CC4)cn3n2)cn1

a:
7.75
8.23

* * *

test system: NCI-H1650; assay: Antiproliferative activity against human NCI-H1650 cells assessed as reduction in cell viability after 72 hrs by sulforhodamine B assay; assay type: functional, cell-based; settings: NCI-H1650, 72 h
Give measured IC50 for each item. Keep answers brief.
Answers are plain numbers, in nM.

>  <substanceSmiles>
CN1CCN(C(=O)c2ccc(NC(=O)Nc3ccc(-c4nc(N5CCOCC5)c5cc(CN6CCN(S(C)(=O)=O)CC6)cn5n4)cc3)cc2)CC1

>  <IC50 [nM]>
344

$$$$
>  <substanceSmiles>
CS(=O)(=O)N1CCN(Cc2cc3nc(-c4cccc5[nH]ncc45)nc(N4CCOCC4)c3s2)CC1

>  <IC50 [nM]>
4730

$$$$

# input for lookup
Recorded result, CS(=O)(=O)N1CCN(Cc2cc3c(N4CCOCC4)nc(-c4ccc(NC(=O)Nc5ccc(F)cc5)cc4)nn3c2)CC1 , IC50: 2300

* * *

molecular target: Voltage-gated inwardly rectifying potassium channel KCNH2 (Homo sapiens, UniProt Q12809); assay: Inhibition of human ERG expressed in CHO cells at holding potential of -80 mV by patch clamp assay
Sequence (Q12809 whole entry): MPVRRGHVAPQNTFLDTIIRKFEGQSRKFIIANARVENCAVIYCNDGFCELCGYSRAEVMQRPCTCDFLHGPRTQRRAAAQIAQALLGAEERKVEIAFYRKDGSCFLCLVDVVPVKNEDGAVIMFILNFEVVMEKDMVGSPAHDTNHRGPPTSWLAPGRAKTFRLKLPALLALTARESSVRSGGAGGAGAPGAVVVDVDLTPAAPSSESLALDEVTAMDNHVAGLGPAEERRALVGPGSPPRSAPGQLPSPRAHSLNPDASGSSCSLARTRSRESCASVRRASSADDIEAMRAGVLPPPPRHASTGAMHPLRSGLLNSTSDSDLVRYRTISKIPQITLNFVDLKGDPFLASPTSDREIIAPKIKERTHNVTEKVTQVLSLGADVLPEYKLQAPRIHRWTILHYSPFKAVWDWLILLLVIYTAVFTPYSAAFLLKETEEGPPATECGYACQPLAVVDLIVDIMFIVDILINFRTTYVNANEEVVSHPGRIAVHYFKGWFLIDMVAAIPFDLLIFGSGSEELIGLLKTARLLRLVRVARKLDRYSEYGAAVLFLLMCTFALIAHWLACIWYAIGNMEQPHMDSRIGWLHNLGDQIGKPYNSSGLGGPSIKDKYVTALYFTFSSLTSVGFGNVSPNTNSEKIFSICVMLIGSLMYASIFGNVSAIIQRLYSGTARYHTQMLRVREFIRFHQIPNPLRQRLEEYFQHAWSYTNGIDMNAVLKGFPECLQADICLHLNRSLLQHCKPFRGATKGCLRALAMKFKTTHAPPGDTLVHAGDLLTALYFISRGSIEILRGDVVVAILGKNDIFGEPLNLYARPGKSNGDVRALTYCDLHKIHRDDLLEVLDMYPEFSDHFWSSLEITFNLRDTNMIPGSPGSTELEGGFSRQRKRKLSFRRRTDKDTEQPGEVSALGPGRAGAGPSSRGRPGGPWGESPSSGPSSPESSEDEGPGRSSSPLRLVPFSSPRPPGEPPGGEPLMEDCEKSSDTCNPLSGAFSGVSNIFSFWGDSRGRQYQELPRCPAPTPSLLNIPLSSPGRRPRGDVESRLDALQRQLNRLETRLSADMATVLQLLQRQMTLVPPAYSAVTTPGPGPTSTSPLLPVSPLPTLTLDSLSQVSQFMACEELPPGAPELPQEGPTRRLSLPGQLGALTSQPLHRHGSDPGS
parameterMeasured: IC50

Recorded result, COC(=O)Nc1cc(C(F)(F)F)c(-c2nc(N3CCOCC3)c3cc(CN4CCN(S(C)(=O)=O)CC4)cn3n2)cn1 , IC50: > 40 µM

* * *

assay: Half life in rat at 10 mg/kg, po; format: ADME, organism-based; conditions: in vivo
parameterMeasured: half-life (h)
Give bare numbers, in h.

Recorded result, COC(=O)Nc1cc(C(F)(F)F)c(-c2nc(N3CCOCC3)c3cc(CN4CCN(S(C)(=O)=O)CC4)cn3n2)cn1 [RISOVALISIB] , half-life: 1.49

* * *

target: Serine/threonine-protein kinase mTOR (Homo sapiens); experiment: Inhibition of human full length recombinant mTOR in presence of [gamma33P-ATP] by radiometric scintillation counting analysis
parameterMeasured: IC50

COC(=O)Nc1cc(C(F)(F)F)c(-c2nc(N3CCOCC3)c3cc(CN4CCN(S(C)(=O)=O)CC4)cn3n2)cn1 tested on Serine/threonine-protein kinase mTOR (Homo sapiens) gave IC50: > 10 µM

* * *

system: NCI-H358; test: Antiproliferative activity against human NCI-H358 cells assessed as reduction in cell viability after 72 hrs by sulforhodamine B assay; format: functional, cell-based; settings: NCI-H358, 72 h
Give measured pIC50 for each item. Keep answers brief.
Numbers only, as −log10 of the molar value.

>  <compound>
CN1CCN(C(=O)c2ccc(NC(=O)Nc3ccc(-c4nc(N5CCOCC5)c5cc(CN6CCN(S(C)(=O)=O)CC6)cn5n4)cc3)cc2)CC1

>  <targetDesc>
NCI-H358

>  <pIC50>
6.73

$$$$
>  <compound>
CS(=O)(=O)N1CCN(Cc2cc3nc(-c4cccc5[nH]ncc45)nc(N4CCOCC4)c3s2)CC1 [PICTILISIB]

>  <targetDesc>
NCI-H358

>  <pIC50>
5.88

$$$$

# input for lookup
Recorded result, CS(=O)(=O)N1CCN(Cc2cc3c(N4CCOCC4)nc(-c4ccc(NC(=O)Nc5ccc(F)cc5)cc4)nn3c2)CC1 , pIC50: 5.89

* * *

Give measured IC50 for each item. Keep answers brief.
tested on: NCI-H522; assay: Antiproliferative activity against human NCI-H522 cells assessed as reduction in cell viability after 72 hrs by sulforhodamine B assay; format: functional, cell-based; details: NCI-H522, 72 h
Numbers only, in µM.

>  <substanceSmiles>
CS(=O)(=O)N1CCN(Cc2cc3c(N4CCOCC4)nc(-c4ccc(NC(=O)Nc5ccc(F)cc5)cc4)nn3c2)CC1

>  <unitName>
µM

>  <IC50>
1.02

$$$$

Consider the following items and state reported IC50 for each.
1. CN1CCN(C(=O)c2ccc(NC(=O)Nc3ccc(-c4nc(N5CCOCC5)c5cc(CN6CCN(S(C)(=O)=O)CC6)cn5n4)cc3)cc2)CC1
2. CS(=O)(=O)N1CCN(Cc2cc3nc(-c4cccc5[nH]ncc45)nc(N4CCOCC4)c3s2)CC1

a:
[0.751, 2.14]

* * *

test: Metabolic stability in rat hepatocytes assessed as half life; format: ADME, cell-based, Hepatocyte
parameterMeasured: half-life (h)
Answers are plain numbers, in h.

Recorded result, COC(=O)Nc1cc(C(F)(F)F)c(-c2nc(N3CCOCC3)c3cc(CN4CCN(S(C)(=O)=O)CC4)cn3n2)cn1 , half-life: 2.46

* * *

molecular target: Phosphatidylinositol 4,5-bisphosphate 3-kinase catalytic subunit alpha isoform (Homo sapiens, UniProt P42336); assay: Inhibition of human PI3Kalpha using PIP2 as substrate in presence of ATP measured after 30 mins by HTRF assay
Sequence (P42336 whole entry, canonical isoform): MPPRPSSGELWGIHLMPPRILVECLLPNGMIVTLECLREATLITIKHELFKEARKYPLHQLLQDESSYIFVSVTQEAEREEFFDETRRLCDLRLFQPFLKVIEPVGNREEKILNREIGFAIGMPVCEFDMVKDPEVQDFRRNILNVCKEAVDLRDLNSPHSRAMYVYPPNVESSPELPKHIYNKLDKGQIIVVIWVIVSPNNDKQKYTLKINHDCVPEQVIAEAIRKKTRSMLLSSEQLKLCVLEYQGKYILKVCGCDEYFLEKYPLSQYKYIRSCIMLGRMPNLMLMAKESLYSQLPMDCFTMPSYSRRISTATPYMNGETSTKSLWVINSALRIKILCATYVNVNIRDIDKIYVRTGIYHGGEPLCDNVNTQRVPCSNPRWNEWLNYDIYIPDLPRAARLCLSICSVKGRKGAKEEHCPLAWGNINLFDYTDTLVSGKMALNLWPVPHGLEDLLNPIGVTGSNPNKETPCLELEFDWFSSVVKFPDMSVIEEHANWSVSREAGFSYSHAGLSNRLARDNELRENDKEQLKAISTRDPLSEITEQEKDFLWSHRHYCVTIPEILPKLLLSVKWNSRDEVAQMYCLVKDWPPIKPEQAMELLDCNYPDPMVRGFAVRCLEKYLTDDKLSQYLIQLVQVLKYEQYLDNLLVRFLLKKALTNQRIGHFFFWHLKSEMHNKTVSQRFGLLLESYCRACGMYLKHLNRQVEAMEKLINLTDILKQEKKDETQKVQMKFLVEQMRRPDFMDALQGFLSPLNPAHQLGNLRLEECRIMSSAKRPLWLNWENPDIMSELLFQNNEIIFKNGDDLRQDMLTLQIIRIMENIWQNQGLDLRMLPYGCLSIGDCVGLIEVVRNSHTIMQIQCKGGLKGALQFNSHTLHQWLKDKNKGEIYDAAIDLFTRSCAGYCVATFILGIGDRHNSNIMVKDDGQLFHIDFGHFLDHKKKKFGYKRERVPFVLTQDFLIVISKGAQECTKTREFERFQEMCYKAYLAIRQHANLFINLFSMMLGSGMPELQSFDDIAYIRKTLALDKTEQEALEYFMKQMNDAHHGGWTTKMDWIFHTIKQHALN
parameterMeasured: pIC50
One number for each entry, as −log10 of the molar value.

>  <substanceSmiles>
C=CC(=O)Nc1cc(C(F)(F)F)c(-c2nc(N3CCOCC3)c3cc(CN4CCN(S(C)(=O)=O)CC4)cn3n2)cn1

>  <pIC50>
7.70

$$$$
>  <substanceSmiles>
CN1CCN(C(=O)c2ccc(NC(=O)Nc3ccc(-c4nc(N5CCOCC5)c5cc(CN6CCN(S(C)(=O)=O)CC6)cn5n4)cc3)cc2)CC1

>  <pIC50>
7.39

$$$$
>  <substanceSmiles>
CNC(=O)Nc1cc(C(F)(F)F)c(-c2nc(N3CCOCC3)c3cc(CN4CCN(S(C)(=O)=O)CC4)cn3n2)cn1

>  <pIC50>
7.63

$$$$
>  <substanceSmiles>
C[C@H]1COCCN1c1nc(-c2cnc(N)cc2C(F)(F)F)nn2cc(CN3CCN(S(C)(=O)=O)CC3)cc12

>  <pIC50>
7.30

$$$$
>  <substanceSmiles>
CCOC(=O)Nc1cc(C(F)(F)F)c(-c2nc(N3CCOCC3)c3cc(CN4CCN(S(C)(=O)=O)CC4)cn3n2)cn1

>  <pIC50>
7.68

$$$$
>  <substanceSmiles>
CN(C)C1CCN(C(=O)c2ccc(NC(=O)Nc3ccc(-c4nc(N5CCOCC5)c5cc(CN6CCN(S(C)(=O)=O)CC6)cn5n4)cc3)cc2)CC1

>  <pIC50>
7.40

$$$$
>  <substanceSmiles>
CS(=O)(=O)N1CCN(Cc2cc3c(N4CC5CCC(C4)O5)nc(-c4cnc(N)cc4C(F)(F)F)nn3c2)CC1

>  <pIC50>
6.61

$$$$
>  <substanceSmiles>
CCNC(=O)Nc1cc(C(F)(F)F)c(-c2nc(N3CCOCC3)c3cc(CN4CCN(S(C)(=O)=O)CC4)cn3n2)cn1

>  <pIC50>
7.38

$$$$

Consider the following items and state reported pIC50 for each.
1. CS(=O)(=O)N1CCN(Cc2cc3c(N4CCOCC4)nc(-c4ccc(NC(=O)Nc5ccc(F)cc5)cc4)nn3c2)CC1
2. CN(C)C(=O)c1ccc(NC(=O)Nc2ccc(-c3nc(N4CCOCC4)c4cc(CN5CCN(S(C)(=O)=O)CC5)cn4n3)cc2)cc1
3. CS(=O)(=O)N1CCN(Cc2cc3c(N4CCOCC4)nc(-c4cnc(N)cc4C(F)(F)F)nn3c2)CC1

a:
1. 6.98
2. 7.17
3. 7.26
